Format: in vivo, human
Conditions: human, plasma, oral, Cmax, Group 2; Treatment B free combination (US‐sourced tadalafil); geometric mean (95% CI)
Some compounds, each annotated with its measured Cmax.
Could you give me the number in ng/mL? Just the number is fine.

1) CCCNS(=O)(=O)Nc1ncnc(OCCOc2ncc(Br)cn2)c1-c1ccc(Br)cc1 | 163
2) CN1CC(=O)N2[C@H](c3ccc4c(c3)OCO4)c3[nH]c4ccccc4c3C[C@@H]2C1=O | 490

The record that follows has no Cmax shown yet.
Data point: "NS(=O)(=O)Nc1ncnc(OCCOc2ncc(Br)cn2)c1-c1ccc(Br)cc1" ; Cmax = 150

====

Type: in vivo, human
Settings: human, plasma, oral, AUC0‐∞, Treatment A FDC (FDC‐2); geometric mean (95% CI)
OBSERVATION TYPE: AUC (ng·h/mL)
Could you give me the number in ng·h/mL? Just the number is fine.

Data point: CCCNS(=O)(=O)Nc1ncnc(OCCOc2ncc(Br)cn2)c1-c1ccc(Br)cc1 [Macitentan, macitentan] ; AUC = 5890

====

Format: in vivo, human
Settings: human, plasma, oral, t1/2, Treatment A FDC (FDC‐2); geometric mean (95% CI)
OBSERVATION TYPE: half-life (h)
Could you give me the number in h? Just the number is fine.

Past entries and their recorded results:
1) NS(=O)(=O)Nc1ncnc(OCCOc2ncc(Br)cn2)c1-c1ccc(Br)cc1 | 49.4
2) CCCNS(=O)(=O)Nc1ncnc(OCCOc2ncc(Br)cn2)c1-c1ccc(Br)cc1 | 16.1

The record that follows has no half-life shown yet.
Data point: "CN1CC(=O)N2[C@H](c3ccc4c(c3)OCO4)c3[nH]c4ccccc4c3C[C@@H]2C1=O" ; half-life = 23.3

====

Format: in vivo, human
Settings: human, plasma, oral, t1/2, Group 2; Treatment A FDC‐2; geometric mean (95% CI)
OBSERVATION TYPE: half-life

1) CN1CC(=O)N2[C@H](c3ccc4c(c3)OCO4)c3[nH]c4ccccc4c3C[C@@H]2C1=O [Tadalafil, tadalafil] | 18.1 h
2) NS(=O)(=O)Nc1ncnc(OCCOc2ncc(Br)cn2)c1-c1ccc(Br)cc1 [ACT‐132577] | 50.5 h

Data point: CCCNS(=O)(=O)Nc1ncnc(OCCOc2ncc(Br)cn2)c1-c1ccc(Br)cc1 [Macitentan, macitentan] ; half-life = 13.8 h

====

Format: in vivo, human
Settings: human, plasma, oral, AUC0‐∞, Group 2; Treatment A FDC‐2; geometric mean (95% CI)
OBSERVATION TYPE: AUC (ng·h/mL)
Could you give me the number in ng·h/mL? Just the number is fine.

Data point: "CCCNS(=O)(=O)Nc1ncnc(OCCOc2ncc(Br)cn2)c1-c1ccc(Br)cc1" ; AUC = 4830

====

Format: in vivo, human
Settings: human, plasma, oral, t1/2, Group 1; Treatment A FDC‐1; geometric mean (95% CI)
OBSERVATION TYPE: half-life (h)
Could you give me the number in h? Just the number is fine.

1) CCCNS(=O)(=O)Nc1ncnc(OCCOc2ncc(Br)cn2)c1-c1ccc(Br)cc1 [Macitentan, macitentan] | 13.8

The record that follows has no half-life shown yet.
Data point: CN1CC(=O)N2[C@H](c3ccc4c(c3)OCO4)c3[nH]c4ccccc4c3C[C@@H]2C1=O [Tadalafil, tadalafil] ; half-life = 18.4

====

Some molecules, each annotated with its measured half-life.
Type: in vivo, human
Conditions: human, plasma, oral, t1/2, Group 1; Treatment B free combination (US‐sourced tadalafil); geometric mean (95% CI)

1) NS(=O)(=O)Nc1ncnc(OCCOc2ncc(Br)cn2)c1-c1ccc(Br)cc1 [ACT‐132577] | 48.5 h

The record that follows has no half-life shown yet.
Data point: CCCNS(=O)(=O)Nc1ncnc(OCCOc2ncc(Br)cn2)c1-c1ccc(Br)cc1 [Macitentan, macitentan] ; half-life = 14 h

====

Assay type: in vivo, human
Conditions: human, plasma, oral, t1/2, Treatment B free combination (EU‐sourced tadalafil); geometric mean (95% CI)
OBSERVATION TYPE: half-life (h)
Could you give me the number in h? Just the number is fine.

Data point: "CN1CC(=O)N2[C@H](c3ccc4c(c3)OCO4)c3[nH]c4ccccc4c3C[C@@H]2C1=O" ; half-life = 22.6

Data point: "NS(=O)(=O)Nc1ncnc(OCCOc2ncc(Br)cn2)c1-c1ccc(Br)cc1" ; half-life = 50.4

Data point: "CCCNS(=O)(=O)Nc1ncnc(OCCOc2ncc(Br)cn2)c1-c1ccc(Br)cc1" ; half-life = 16.1

====

Type: in vivo, human
Settings: human, plasma, oral, AUC0‐∞, Group 1; Treatment A FDC‐1; geometric mean (95% CI)
OBSERVATION TYPE: AUC (ng·h/mL)
Could you give me the number in ng·h/mL? Just the number is fine.

Data point: "CCCNS(=O)(=O)Nc1ncnc(OCCOc2ncc(Br)cn2)c1-c1ccc(Br)cc1" ; AUC = 4430

====

Assay type: in vivo, human
Conditions: human, plasma, oral, AUC0‐t, Group 1; Treatment A FDC‐1; geometric mean (95% CI)
OBSERVATION TYPE: AUC
Dear colleague, please send the value followed by its unit.

Data point: CCCNS(=O)(=O)Nc1ncnc(OCCOc2ncc(Br)cn2)c1-c1ccc(Br)cc1 [Macitentan, macitentan] ; AUC = 4320 ng·h/mL

====

Some compounds, each annotated with its measured Cmax.
Type: in vivo, human
Conditions: human, plasma, oral, Cmax, Treatment A FDC (FDC‐2, 10 mg/40 mg), single dose, fasted, healthy subjects; geometric mean (95% CI)
Could you give me the number in ng/mL? Just the number is fine.

Past entries and their recorded results:
1. NS(=O)(=O)Nc1ncnc(OCCOc2ncc(Br)cn2)c1-c1ccc(Br)cc1 | 163
2. CCCNS(=O)(=O)Nc1ncnc(OCCOc2ncc(Br)cn2)c1-c1ccc(Br)cc1 | 175

The record that follows has no Cmax shown yet.
Data point: "CN1CC(=O)N2[C@H](c3ccc4c(c3)OCO4)c3[nH]c4ccccc4c3C[C@@H]2C1=O" ; Cmax = 539

====

Assay type: in vivo, human
Conditions: human, plasma, oral, t1/2, Group 2; Treatment B free combination (US‐sourced tadalafil); geometric mean (95% CI)
Some compounds, each annotated with its measured half-life.
Could you give me the number in h? Just the number is fine.

Past entries and their recorded results:
1) CCCNS(=O)(=O)Nc1ncnc(OCCOc2ncc(Br)cn2)c1-c1ccc(Br)cc1 [Macitentan, macitentan] | 14.4
2) CN1CC(=O)N2[C@H](c3ccc4c(c3)OCO4)c3[nH]c4ccccc4c3C[C@@H]2C1=O [Tadalafil, tadalafil] | 18.5

Data point: NS(=O)(=O)Nc1ncnc(OCCOc2ncc(Br)cn2)c1-c1ccc(Br)cc1 [ACT‐132577] ; half-life = 50.3

====

Format: in vivo, human
Details: human, plasma, oral
Some molecules, each annotated with its measured Tmax.
Could you give me the number in h? Just the number is fine.

1. NS(=O)(=O)Nc1ncnc(OCCOc2ncc(Br)cn2)c1-c1ccc(Br)cc1 | 48

The record that follows has no Tmax shown yet.
Data point: "CCCNS(=O)(=O)Nc1ncnc(OCCOc2ncc(Br)cn2)c1-c1ccc(Br)cc1" ; Tmax = 9

====

Format: in vivo, human
Conditions: human, plasma, oral, AUC0‐∞, Group 1; Treatment B free combination (US‐sourced tadalafil); geometric mean (95% CI)
OBSERVATION TYPE: AUC (ng·h/mL)
Could you give me the number in ng·h/mL? Just the number is fine.

Data point: "CCCNS(=O)(=O)Nc1ncnc(OCCOc2ncc(Br)cn2)c1-c1ccc(Br)cc1" ; AUC = 4510

====

Type: in vivo, human
Conditions: human, plasma, oral, AUC0‐∞, Group 2; Treatment B free combination (US‐sourced tadalafil); geometric mean (95% CI)
OBSERVATION TYPE: AUC (ng·h/mL)
Could you give me the number in ng·h/mL? Just the number is fine.

Data point: "CCCNS(=O)(=O)Nc1ncnc(OCCOc2ncc(Br)cn2)c1-c1ccc(Br)cc1" ; AUC = 4390

====

Assay type: in vivo, human
Conditions: human, plasma, oral, tmax, Treatment A FDC (FDC‐2); median (range)
OBSERVATION TYPE: Tmax (h)
Could you give me the number in h? Just the number is fine.

Data point: "CN1CC(=O)N2[C@H](c3ccc4c(c3)OCO4)c3[nH]c4ccccc4c3C[C@@H]2C1=O" ; Tmax = 2

Hey, just so you know, these numbers are from paper PMC7688529.
